Origin of measurements: patent US20220324970A1

# Study Target: T1, human pIgR extracellular domain (ECD) (human, UniProt P01833 19-638)
# T1 construct: also called hpIgR ECD
# T1 sequence (P01833 other isoform, or with tags, fused parts or gaps): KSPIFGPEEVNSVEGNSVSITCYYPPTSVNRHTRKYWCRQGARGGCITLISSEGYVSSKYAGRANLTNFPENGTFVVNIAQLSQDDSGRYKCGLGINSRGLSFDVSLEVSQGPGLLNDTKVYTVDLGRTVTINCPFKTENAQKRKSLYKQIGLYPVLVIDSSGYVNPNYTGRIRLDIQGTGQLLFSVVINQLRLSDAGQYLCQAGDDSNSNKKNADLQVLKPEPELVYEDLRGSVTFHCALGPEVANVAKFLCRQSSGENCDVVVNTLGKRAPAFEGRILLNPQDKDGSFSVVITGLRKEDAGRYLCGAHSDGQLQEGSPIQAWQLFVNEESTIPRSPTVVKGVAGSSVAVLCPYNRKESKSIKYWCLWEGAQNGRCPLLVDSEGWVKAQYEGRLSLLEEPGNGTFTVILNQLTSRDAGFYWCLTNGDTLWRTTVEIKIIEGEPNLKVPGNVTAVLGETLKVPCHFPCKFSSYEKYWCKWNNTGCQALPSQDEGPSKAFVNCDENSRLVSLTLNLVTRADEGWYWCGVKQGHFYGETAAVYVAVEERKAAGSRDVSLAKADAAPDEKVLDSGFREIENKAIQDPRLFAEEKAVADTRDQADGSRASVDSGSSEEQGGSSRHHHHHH
# Assay Method Text: BLI (Octet RED384), 1:1 fit, 25 C, PBS
The binders listed here are annotated with their kon.

VHH9-linker-mono-Fc protein (Fc fusion, made in CHO cells; also called VHH9-mono-Fc; hpIgR_221) QVQLVESGGGLVQAGGSLRLSCAVSGRTFSTYRMGWFRQAPGKERSFVAAISWSGGSTTYADPVKGRFTISRDNAKNTVYLRMNSLKPEDTAVYYCNDQRGYWGQGTLVTVSSEPKTPKPQPQPQLQPQPNPTTESKSPKSPAPELLGGPSVFLFPPKPKDTLMISRTPEVTCVVVDVSHEDPEVKFNWYVDGVEVHNAKTKPREEQYNSTYRVVSVLTVLHQDWLNGKEYKCKVSNKALPAPIEKTISKAKGQPREPQVYTKPPSREEMTKNQVSLSCLVKGFYPSDIAVEWESNGQPENNYKTTVPVLDSDGSFRLASYLTVDKSRWQQGNVFSCSVMHEALHNHYTQKSLSLSPGK = 79300 M⁻¹ s⁻¹
VHH5-linker-mono-Fc protein (Fc fusion, made in CHO cells; also called VHH5-mono-Fc; hpIgR_175) QVQLVESGGGLVQAGGSLRLSCAASGRTFSSYAMGWFRQAPGKEREFVAAITWNGGTTYYADSVKGRFTISRDNAKNTVYLQMNSLKPEDTAVYYCAADPFNQGYWGQGTQVTVSSEPKTPKPQPQPQLQPQPNPTTESKSPKSPAPELLGGPSVFLFPPKPKDTLMISRTPEVTCVVVDVSHEDPEVKFNWYVDGVEVHNAKTKPREEQYNSTYRVVSVLTVLHQDWLNGKEYKCKVSNKALPAPIEKTISKAKGQPREPQVYTKPPSREEMTKNQVSLSCLVKGFYPSDIAVEWESNGQPENNYKTTVPVLDSDGSFRLASYLTVDKSRWQQGNVFSCSVMHEALHNHYTQKSLSLSPGK = 145000 M⁻¹ s⁻¹

Okay, next one:
In one line, give reported kon of the entry VHH10-linker-mono-Fc protein (Fc fusion, made in CHO cells; also called VHH10-mono-Fc; hpIgR_225) EVQVVESGGGLVQAGGSLRLSCAASGFTFTRYAMGWFRQAPGKERSFVAAISWSGSSAGYGDSVKGRFTISRDNAKNTLYLQMNSLKPEDTAVYYCAADPFNQGYWGQGTQVTVSSEPKTPKPQPQPQLQPQPNPTTESKSPKSPAPELLGGPSVFLFPPKPKDTLMISRTPEVTCVVVDVSHEDPEVKFNWYVDGVEVHNAKTKPREEQYNSTYRVVSVLTVLHQDWLNGKEYKCKVSNKALPAPIEKTISKAKGQPREPQVYTKPPSREEMTKNQVSLSCLVKGFYPSDIAVEWESNGQPENNYKTTVPVLDSDGSFRLASYLTVDKSRWQQGNVFSCSVMHEALHNHYTQKSLSLSPGK .
20000 M⁻¹ s⁻¹
